Experiment: Toxicokinetics in SD rats
Format: in vivo
Conditions: both sexes, rat, plasma, po; X1, SD rats, VV116 p.o. 200 mg/kg, Total, Day 1
Attribute measured: AUC0-t

Task: State the recorded AUC0-t for this entry: [2H]c1cc([C@]2(C#N)O[C@H](CO)[C@@H](O)[C@H]2O)n2ncnc(N)c12
Result: 85200 ng·h/mL

* * *

Experiment: Cellular toxicity in A549 cells (WST-8 cell viability)
Type: cell-based
Details: human; A549 cells, 48 h; read-out: CC50
Would you kindly list CC50 at 48 h for each of these compounds?

Some solved cases for reference:
>>> value("Nc1ccn([C@@H]2O[C@@](CO)(CCl)[C@@H](O)[C@H]2F)c(=O)n1")
"> 500 µM"
>>> value("N#C[C@@]1(c2ccc3c(N)ncnn23)O[C@H](CO)[C@@H](O)[C@H]1O")
"> 500 µM"
>>> value("[2H]c1cc([C@]2(C#N)O[C@H](CO)[C@@H](O)[C@H]2O)n2ncnc(N)c12")
"> 500 µM"

Okay, now this compound:
Task: State the recorded CC50 at 48 h for this entry: [2H]c1cc([C@]2(C#N)O[C@H](COC(=O)C(C)C)[C@@H](OC(=O)C(C)C)[C@H]2OC(=O)C(C)C)n2ncnc(N)c12
Result: 95.9 µM

Hello, the source for this data is paper PMC9012943, in case you need it.
